# Tgt: T1, human IL-11Rα, FLAG-tagged, expressed at the surface of transiently transfected cells (human, UniProt Q14626 23-422)
# T1 construct: whole, on cells; also called IL-11Rα expressing HEK cells; FLAG-tagged human IL-11Rα; not shown: tag
# T1 sequence (looked up): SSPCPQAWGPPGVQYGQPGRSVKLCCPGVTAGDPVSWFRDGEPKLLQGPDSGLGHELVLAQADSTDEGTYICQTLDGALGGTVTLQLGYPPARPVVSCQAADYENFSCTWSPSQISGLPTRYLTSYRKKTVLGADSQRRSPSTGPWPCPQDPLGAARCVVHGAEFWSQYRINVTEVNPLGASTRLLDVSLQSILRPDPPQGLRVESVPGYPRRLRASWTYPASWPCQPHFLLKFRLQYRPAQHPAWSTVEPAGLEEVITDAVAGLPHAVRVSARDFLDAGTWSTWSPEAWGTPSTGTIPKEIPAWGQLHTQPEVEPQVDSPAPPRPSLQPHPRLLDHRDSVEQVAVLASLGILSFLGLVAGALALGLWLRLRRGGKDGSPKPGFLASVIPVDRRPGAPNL
# Protocol: flow cytometry of subcloned hybridoma supernatant on cells transfected with FLAG-tagged human IL-11Rα (sheet header: 'pB1-IL11-hum.FL', 'flow cytometry (Attunes)'; text: iQue mix-and-measure, anti-mouse IgG secondary)
Field: GMFI. Provide a value for each of the binders that follow.
Enter the number alone.

Asked: Consider the binder shown here: BSO-10D11 (antibody, V domains shown, Mouse monoclonal from hybridoma) VH: QVQLQQSGTELVRPGTSVKMSCKAAGYTFTDYWIGWIKQRPGHGLEWIGDIFPGGDYTKCSERFKGKAKLTADTSSSTAYMQLSRLTSEDSAIYYCARRSTTIRFGAMDNWGQGTSVTVSS VL: DIQMTQSPSSLSASLGERVSLTCRASQEISAYLSWLQQKPDGTIKRLIYSTSTLDSGVPKRFSGSRSGSDYSLTISSLESEDFADYFCLQYASSPLTFGAGTKLELK What is its recorded GMFI?
Given back: 13100

Asked: Consider the binder shown here: BSO-5E5 (antibody, V domains shown, Mouse monoclonal from hybridoma; also called RA5) VH: DVQLQESGPGLVKPSQSLSLTCSVTGYSITSDYYWNWIRQFPGNKLEWMGYISYDSSNNYNPSLKNRISITRDTSKNQFFLKLNSVTTEDTATYYCASVGYYYVSDWYFDVWGTGTTVTVSS VL: DIVMSQSPSSLPVSVGENVTMSCKSSQSLLYGSNQKNYLAWYQQKPGQSPKLLIYWASTRESGVPDRFTGSGSGTDFTLTISSVKAEDLAVYFCQQYYSYPRTFGGGTKLEIK What is its recorded GMFI?
Given back: 8780

Asked: Consider the binder shown here: BSO-7G9 (antibody, V domains shown, Mouse monoclonal from hybridoma) VH: QVQLQQPGAELVKPGASVRLSCKASGYTFTSYWMHWVKQRPGQGLEWIGMIHPNSGYTNYNEKFKIKATLTVDKSSSTAHMQLSSLTSEDSAVYHCARGGYDGSYGPWFAYWGQGTLVTVSA VL: DVVMTQTPLSLPVSLGDQASISCRSSQSLVHSNGNTYLHWYLQKPGQSPKLLIYKVSNRFSGVPDRFSGSGSGTDFTLKISRVEAEDLGVYFCSQSTHVPLTFGAGTKLELK What is its recorded GMFI?
Given back: 18600

Asked: Consider the binder shown here: BSO-4G3 (antibody, V domains shown, Mouse monoclonal from hybridoma) VH: EVQLVESGGGLVKPGGSLKLSCAASGFTFSTYAMSWVRQTPEKRLEWVAAIKSNGGSTYYPDTVKDRFTISRDNAKNTLYLQMSSLRPEDTALYYCAHGLLFAHWGQGTLVTVSA VL: DIVLTQSPASLAVSLGQSVTISCRASESVEYSGTTLMQWYQQKPGQPPKLLIYGASNVESGVPARFSGSGSGTDFSLNIHPVEEDDIAMYFCQQSRKVPYTFGSGTKLEIK What is its recorded GMFI?
Given back: 9300

Asked: Consider the binder shown here: BSO-9A7 (antibody, V domains shown, Mouse monoclonal from hybridoma; also called RA7) VH: QVQLQQPGAELVRPGSSVKLSCKASGYTFTNYWMHWLKQRPVQGLEWIGNIGPSDSKTHYNQKFKDKATLTVDKSSSTAYMQLNSLTSEDSAVYYCARGDYVLFTYWGQGTLVTVSA VL: DIVLTQSPATLSMTPGDSVSLSCRASQSISNNLHWYQQKSHESPRLLIKYASQSISGIPSRFSGSGSGTDFTLSFNSVETEDFGVYFCQQRYSWPLTFGAGTKLEMK What is its recorded GMFI?
Given back: 34800

Asked: Consider the binder shown here: BSO-13B10 (antibody, V domains shown, Mouse monoclonal from hybridoma; also called RA9) VH: QVQLKESGPGLVAPSQSLSITCTVSGFSLTSFSISWVRQPPGKGLEWLGGIWTGGGTNYNSALKPRLSISKDNSKSQVFLKMNSLQTDDTARYYCARNSNYPSGFAYWGQGTLVTVSA VL: DIVMTQSQKFMSTSVGDRVSVTCKASQNVGSNVAWYQQKAGQSPKALIYSASYRYSGVPDRFTGSGSGTDFTLTISNVQSEDLAEYFCQQYNSYPLTFGAGTKLELK What is its recorded GMFI?
Given back: 10900

Asked: Consider the binder shown here: BSO-2E5 (antibody, V domains shown, Mouse monoclonal from hybridoma; also called RA3) VH: QGQVQQSGAELVKPGASVKLSCKTSGFTFSTSYISWLKQKPRQSLEWIAWIYAGTGSTSYNQKFTGKAQLTVDTSSSTAYMQLSSLTSEDSAIYYCARHWAYWGQGTLVTVSA VL: DIQMTQSPSSLSASLGERVSLTCRASQDIGSSLNWLQQEPDGTIKRLIYATASLESGVPKRFSGSRSGSDYSLTISRLESEDFVDYYCQQYASSPPTFGAGTKLELK What is its recorded GMFI?
Given back: 9540

Provenance of the data: patent US20200207847A1
